Reference source: PubChem BioAssay (NCI)

Tested on: T-47D breast
Assay: NCI tumour cell line growth inhibition, 48 h
measured-attribute: TGI (µM)
Respond with the bare value in µM.

Below are worked cases with known answers.
compound="COC1CCC(OC2CC(C3(C)CCC4(CC(O)C(C)C(C(C)/C=C(\\C)C(=O)C(C)CC(C)C(=O)O)O4)O3)OC3(OC(C4OC(O)(CO)C(C)CC4C)CC3C)C2C)OC1C (configuration not stated)" measured_attribute=TGI quantity_unit=µM result_number=1.22
compound=O=C(/C=C/c1ccc([N+](=O)[O-])o1)NNC(=O)c1cc2ccccc2cc1O measured_attribute=TGI quantity_unit=µM result_number=5.77

Continue with the next compound.
Prompt: Entry `O=C1Cc2c(-c3ccccc3)cc(-c3cccc(Cl)c3)nc2-c2ccccc2N1` : reported TGI = ?
Completion: 6.01
